Where these numbers come from: PubChem BioAssay (NCI)

Field: TGI. Provide a value for each of the molecules that follow.
test system: OVCAR-8 ovarian; test: NCI tumour cell line growth inhibition, 48 h

// worked examples, TGI included
- molecule: "O=[N+]([O-])c1cccc2nc3ccccc3c(NCCC[N+]3([O-])CCOCC3)c12"
  target_entity: "OVCAR-8 ovarian"
  endpoint_name: "TGI"
  observed_measurement: "3.44 µM"
- molecule: "COc1cc(/C=C2\\CN(C)CC3=C2NC(=S)NC3c2cc(OC)c(OC)c(OC)c2)cc(OC)c1OC (stereo not drawn)"
  target_entity: "OVCAR-8 ovarian"
  endpoint_name: "TGI"
  observed_measurement: "> 100 µM"
- molecule: "CC[CH2][Sn]([Cl])([Cl])[CH2]CC.Oc1ccccc1C=NCCN=Cc1ccccc1O"
  target_entity: "OVCAR-8 ovarian"
  endpoint_name: "TGI"
  observed_measurement: "27.7 µM"

List the reported TGI of each molecule below.
1. NC(N)=N/N=C/c1c(-c2cccc([N+](=O)[O-])c2)nc2n1CCS2
2. COC(C(O)c1ccc2c(c1)OCO2)P(=O)(c1ccccc1)c1ccccc1 (stereo not drawn)

1: 39.3 µM; 2: > 100 µM

---

For each of the molecules below, state its TGI.
system: CAKI-1 renal; assay: NCI tumour cell line growth inhibition, 48 h

- chemical_string: "CCOC(=O)CCn1[nH]c(=O)c(Cl)c(Cl)c1=O"
  TGI: "> 100 µM"
- chemical_string: "O=C1OC(c2ccco2)=N/C1=C\\c1cccc([N+](=O)[O-])c1"
  TGI: "> 100 µM"

Let us move to another entry and its TGI.
GET /values?readout=TGI&item= COC/C=C\[C@]1(O)CCCC[C@@H]1CC(OC)OC
> 100 µM

---

Test system NCI-H460 lung, GI50 listed for each of the compounds.

Field: example entries. Status: answers known.
- compound: "COc1cc2c3c(n(CCNCCCNCCn4c5c(c6cc(OC)c(OC)cc6c4=O)C(=O)c4ccccc4-5)c(=O)c2cc1OC)-c1ccccc1C3=O"
  observed_measurement: "71.9 nM"
- compound: "Cc1cc(O)c(C(C)(C)C)cc1Sc1cc(C(C)(C)C)c(O)cc1C"
  observed_measurement: "2890 nM"
- compound: "N.N.O=C([O-])P(=O)([O-])[O-].[Na+].[Pt+4]"
  observed_measurement: "> 100000 nM"
- compound: "CCC(=O)c1c(C(F)(F)F)n([O-])c2ccc(C)cc2[n+]1=O"
  observed_measurement: "3950 nM"
- compound: "NCCCn1c2c(c3ccc([N+](=O)[O-])cc3c1=O)C(=O)c1cc(Br)ccc1-2"
  observed_measurement: "0.746 nM"
- compound: "O=C1/C(=C/c2ccc(O)cc2)CSc2ccc(Cl)cc21"
  observed_measurement: "17700 nM"
- compound: "Cc1ccc2[nH]c(C(=O)NN3C(=O)C(C)SC34CCCC(C)C4)c(-c3ccccc3)c2c1 (stereo not given)"
  observed_measurement: "83300 nM"
- compound: "Cc1ccc(NC(=O)NCCCOc2ccc(N3C(N)=NC(N)=NC3(C)C)cc2Cl)cc1S(=O)(=O)F"
  observed_measurement: "1680 nM"

Need GI50 for each of these compounds.
1. Fc1ccc(-c2nn3ncccc3c2-c2ccnc(Nc3ccc4c(c3)OCCO4)n2)cc1
2. Cc1ccc(C(=O)Nc2ccc(CN3CCN(C)CC3)c(C(F)(F)F)c2)cc1C#Cc1cnc(N)c2ccccc12

["5640 nM", "320 nM"]
